# System: Acinetobacter baumannii
# assay-comment: Ratio of Kcat to Km for Acinetobacter baumannii ADC-33 beta-lactamase to Kcat to Km for Acinetobacter baumannii ADC-11 beta-lactamase
quantity: kcat/Km

Guide cases for kcat/Km, answers given:
{"compound": "CC(C)(O/N=C(\\C(=O)N[C@@H]1C(=O)N2C(C(=O)[O-])=C(C[n+]3ccccc3)CS[C@H]12)c1csc(N)n1)C(=O)O", "test-system": "Acinetobacter baumannii", "kcat/Km": "1.5e+08 M⁻¹ s⁻¹"}
{"compound": "CO/N=C(\\C(=O)N[C@@H]1C(=O)N2C(C(=O)[O-])=C(C[N+]3(C)CCCC3)CS[C@H]12)c1csc(N)n1", "test-system": "Acinetobacter baumannii", "kcat/Km": "2e+07 M⁻¹ s⁻¹"}
{"compound": "C[C@@H](O)[C@H]1C(=O)N2C(C(=O)O)=C(SCCNC=N)C[C@H]12 [IMIPENEM ANHYDROUS]", "test-system": "Acinetobacter baumannii", "kcat/Km": "800000 M⁻¹ s⁻¹"}

Okay, next one:
Entry "CC1(C)S[C@@H]2[C@H](NC(=O)[C@H](N)c3ccccc3)C(=O)N2[C@H]1C(=O)O" , system Acinetobacter baumannii: what kcat/Km was measured?
500000 M⁻¹ s⁻¹
